Origin of the recorded values: PubChem BioAssay (NCI)

assay: NCI Yeast Anticancer Drug Screen. Data for the cln2 rad14 strain (AID 165);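 also: 0% = growth equal to vehicle treated cultures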; settings: S. cerevisiae cln2 rad14 strain, at 50.0 µM, stronger effect = higher value
About 79,000 compounds went through this panel and 15% of them were active in at least one assay; those are over-represented in the sample as a whole.

compound	endpoint-unit	growth inhibition
CC(C)(C)c1cc(C#N)cc(Br)c1O	%	97.2
O=C(/C=C/c1ccc(Cl)cc1)c1ccc(Cl)s1	%	-16.2
Nc1ccc2c(c1)C(=O)CCCC2	%	-10.1
COc1cc(CCC(=O)NS(=O)(=O)c2ccccc2)cc(OC)c1OC	%	-2.85
CN1C(=O)N(C)C(=O)C(C)(NS(=O)(=O)c2ccc(NC(=O)CCC(=O)O)cc2)C1=O	%	16.1
COc1ccc2c(c1)OCCN(C)OC2c1ccccc1 (configuration not stated)	%	0.5
O=C1c2cc(Cl)ccc2-c2cc(Cl)c(Cl)cc21	%	-29.9
COc1ccccc1NC(=O)CC(=O)n1nc(C)c(N=Nc2ccccc2F)c1C	%	6.8
CCCCC(CC)C(C(C)=O)N(C)C (configuration not stated)	%	8.65
CCOC(=O)CCCCCOC1CCCCO1 (configuration not stated)	%	-0.1
COc1cc(C(C)S(=O)(=O)O)ccc1O (configuration not stated)	%	-12.6
CCCC[P+](CCCC)(CCCC)C(C(=O)OC)C(C(=O)OC)=C1SC(C(=O)OC)=C(C(=O)OC)S1 (configuration not stated)	%	6.6
